# Target entity: human TREM2/DAP12 fusion protein (human, UniProt O43914 41-113, limits assumed)
# Sequence (O43914 other isoform, or with tags, fused parts or gaps limits assumed): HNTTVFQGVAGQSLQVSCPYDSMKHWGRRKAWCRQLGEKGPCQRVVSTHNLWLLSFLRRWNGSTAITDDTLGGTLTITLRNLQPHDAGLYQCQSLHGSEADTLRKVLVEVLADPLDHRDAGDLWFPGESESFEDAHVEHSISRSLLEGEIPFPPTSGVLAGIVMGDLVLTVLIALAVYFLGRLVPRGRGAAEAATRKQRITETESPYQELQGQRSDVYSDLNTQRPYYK
# Method: cell-based or functional assay
Luciferase activation plate bound 33 nM IgG, FOC values by entry
Measurement kind: Luciferase activation plate bound 33 nM IgG, FOC

INSERT INTO assay_data (binder, meas_value) VALUES
  ('AL2p-7 (antibody, V domains shown, Fab and IgG formats under one id) VH: QVQLVQSGAEVKKPGSSVKVSCKASGYAFSLSWMNWVRQAPGQGLEWMGRIYPGDGDTNYAQKFRGRVTITADESTSTAYMELSSLRSEDTAVYYCARLLRNQPGESYAMDYWGQGTLVTVSS VL: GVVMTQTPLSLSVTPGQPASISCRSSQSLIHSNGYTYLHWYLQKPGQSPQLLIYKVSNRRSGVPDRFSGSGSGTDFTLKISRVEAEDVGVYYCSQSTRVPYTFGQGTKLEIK', '18.9 FOC'),
  ('AL2p-21 (antibody, V domains shown, Fab and IgG formats under one id) VH: QVQLVQSGAEVKKPGSSVKVSCKASGYAFSSHWMNWVRQAPGQGLEWMGRIYPGDGDTNYAWKFQGRVTITADESTSTAYMELSSLRSEDTAVYYCARLLRNQPGESYAMDYWGQGTLVTVSS VL: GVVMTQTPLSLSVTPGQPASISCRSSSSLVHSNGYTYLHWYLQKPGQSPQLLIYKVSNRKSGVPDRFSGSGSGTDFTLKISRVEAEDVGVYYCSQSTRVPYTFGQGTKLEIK', '13.1 FOC'),
  ('AL2p-3 (antibody, V domains shown, AL2p-h50 variant; Fab and IgG formats under one id) VH: QVQLVQSGAEVKKPGSSVKVSCKASGYAFSSSWMNWVRQAPGQGLEWMGRIYPGEGDTNYAQKFQGRVTITADESTSTAYMELSSLRSEDTAVYYCARLLRNQPGESYAMDYWGQGTLVTVSS VL: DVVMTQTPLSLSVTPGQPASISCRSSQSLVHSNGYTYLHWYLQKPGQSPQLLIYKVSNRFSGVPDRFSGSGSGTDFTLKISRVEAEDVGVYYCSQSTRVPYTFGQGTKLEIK', '6.03 FOC'),
  ('AL2p-37 (antibody, IgG1, V domains shown, Fab and IgG formats under one id; also called AL2p-37 huIgG1) VH: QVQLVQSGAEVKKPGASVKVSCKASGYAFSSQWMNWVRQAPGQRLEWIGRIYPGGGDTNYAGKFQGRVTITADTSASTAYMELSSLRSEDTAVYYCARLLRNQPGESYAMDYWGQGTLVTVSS VL: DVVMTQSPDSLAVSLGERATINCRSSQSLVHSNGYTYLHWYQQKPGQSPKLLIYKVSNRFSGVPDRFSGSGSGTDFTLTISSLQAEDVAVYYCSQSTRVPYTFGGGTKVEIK', '9.42 FOC'),
  ('AL2p-24 (antibody, V domains shown, Fab and IgG formats under one id) VH: QVQLVQSGAEVKKPGSSVKVSCKASGYAFSSHWMNWVRQAPGQGLEWMGRIYPGGGDTNYAQKFQGRVTITADESTSTAYMELSSLRSEDTAVYYCARLLRNQPGESYAMDYWGQGTLVTVSS VL: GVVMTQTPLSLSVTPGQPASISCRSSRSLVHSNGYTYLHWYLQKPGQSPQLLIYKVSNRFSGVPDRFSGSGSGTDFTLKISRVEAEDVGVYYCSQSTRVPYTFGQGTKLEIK', '24.1 FOC'),
  ('AL2p-9 (antibody, V domains shown, Fab and IgG formats under one id) VH: QVQLVQSGAEVKKPGSSVKVSCKASGYAFSRSWMNWVRQAPGQGLEWMGRIYPGDGDTNYAQKFQGRVTITADESTSTAYMELSSLRSEDTAVYYCARLLRNQPGASYAMDYWGQGTLVTVSS VL: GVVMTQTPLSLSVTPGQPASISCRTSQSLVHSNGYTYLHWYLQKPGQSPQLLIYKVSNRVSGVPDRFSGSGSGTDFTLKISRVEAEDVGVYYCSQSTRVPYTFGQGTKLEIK', '15.2 FOC'),
  ('AL2p-31 (antibody, V domains shown, Fab and IgG formats under one id) VH: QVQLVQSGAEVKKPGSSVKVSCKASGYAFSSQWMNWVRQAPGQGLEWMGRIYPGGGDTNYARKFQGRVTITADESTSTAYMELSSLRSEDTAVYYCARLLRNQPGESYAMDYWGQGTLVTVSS VL: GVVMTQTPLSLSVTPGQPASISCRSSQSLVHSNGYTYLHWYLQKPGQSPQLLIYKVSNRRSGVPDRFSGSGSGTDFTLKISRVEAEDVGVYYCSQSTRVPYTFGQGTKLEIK', '28.2 FOC'),
  ('AL2p-32 (antibody, V domains shown, Fab and IgG formats under one id) VH: QVQLVQSGAEVKKPGSSVKVSCKASGYAFSSEWMNWVRQAPGQGLEWMGRIYPGDGDTNYAQKFQGRVTITADESTSTAYMELSSLRSEDTAVYYCARLLRNQPGESYAMDYWGQGTLVTVSS VL: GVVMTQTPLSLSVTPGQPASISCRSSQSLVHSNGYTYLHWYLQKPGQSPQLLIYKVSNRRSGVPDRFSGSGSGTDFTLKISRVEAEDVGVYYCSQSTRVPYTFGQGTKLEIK', '4.9 FOC'),
  ('AL2p-h77 (antibody, human IgG1, V domains shown, humanized, human IgG1; Fab and IgG formats under one id; also called A2p-h77) VH: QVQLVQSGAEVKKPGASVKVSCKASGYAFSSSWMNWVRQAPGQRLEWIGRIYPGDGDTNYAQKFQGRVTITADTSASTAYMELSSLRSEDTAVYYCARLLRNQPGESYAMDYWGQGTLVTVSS VL: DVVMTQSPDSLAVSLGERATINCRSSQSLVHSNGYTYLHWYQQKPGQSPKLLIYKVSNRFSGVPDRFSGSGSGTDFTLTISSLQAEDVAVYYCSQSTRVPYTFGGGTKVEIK', '6.77 FOC'),
  ('AL2p-30 (antibody, V domains shown, Fab and IgG formats under one id) VH: QVQLVQSGAEVKKPGSSVKVSCKASGYAFSSQWMNWVRQAPGQGLEWMGRIYPGDGDTNYAWKFQGRVTITADESTSTAYMELSSLRSEDTAVYYCARLLRNQPGESYAMDYWGQGTLVTVSS VL: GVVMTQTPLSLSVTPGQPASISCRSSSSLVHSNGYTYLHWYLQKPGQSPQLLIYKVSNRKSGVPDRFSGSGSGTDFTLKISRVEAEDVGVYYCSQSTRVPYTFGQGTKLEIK', '15.8 FOC');
